The measurements presented in this section are drawn from the NIST ThermoML archive (doi:10.1021/je9010486).

# Procedure Summary: cn = amount concentration of the nth substance listed, in mol/dm3
# Recorded Conditions: 303.15 K; 101 kPa; Liquid; c1 = 0.2
Endpoint Name: mass density (kg/m3)
Number in kg/m3, nothing else.

These recorded examples may help you get a feel for the data.
Molecule | Obs Value
OC[C@@H](O)[C@@H](O)CO [meso-1,2,3,4-butanetetrol] + O | 1002.74
OC[C@@H](O)[C@@H](O)[C@H](O)[C@H](O)CO [mannitol] + O | 1008.14
OC[C@@H](O)[C@@H](O)[C@H](O)[C@@H](O)CO [D-sorbitol] + O | 1008.52

## Input Check the records and state mass density for OC[C@@H](O)[C@H](O)[C@@H](O)CO [xylitol] + O
## Output 1005.78

## Input Check the records and state mass density for OC[C@@H](O)[C@@H](O[C@H]1O[C@H](CO)[C@@H](O)[C@H](O)[C@H]1O)[C@H](O)[C@@H](O)CO [4-O-α-D-glucopyranosyl-D-glucitol] + O
## Output 1016.24

====

Each item that follows carries a reported viscosity.
# Procedure Summary: cn = amount concentration of the nth substance listed, in mol/dm3
# Recorded Conditions: 293.15 K; 101 kPa; Liquid; c1 = 0.7
± gives the expanded uncertainty stated by the source.
Reply with the number, then its unit.

These recorded examples may help you get a feel for the data.
Compound | viscosity
OC[C@@H](O)[C@H](O)[C@@H](O)CO [xylitol] + O | 1.313 ± 0.031 mPa·s
OC[C@@H](O)[C@@H](O)CO [meso-1,2,3,4-butanetetrol] + O | 1.213 ± 0.029 mPa·s

## Input Check the records and state viscosity for OC[C@@H](O)[C@@H](O)[C@H](O)[C@H](O)CO [mannitol] + O
## Output 1.472 ± 0.035 mPa·s
